Read-out: Interleukin-1 alpha (IL1a), IL1A (gene 3552)
test.method.notes: BSK_BE3C_IL1a: BioMAP Diversity Plus: BE3C Assay for Interleukin-1 alpha (IL1a) Biomarker Activity (AID 2283016)
protocol.conditions: primary human bronchial epithelial cells; actives raise or lower the signal
Activity calls are given as the source filed them. How the source made its calls: active means hit-call score of the fitted dose curve at least 0.9, where 1 is the maximum; inactive means score below 0.9.
Thanks in advance; please answer with one of these: active, inactive

As a guide, the following entries are already answered.
{"columns": ["molecule", "assigned.label"],
 "data": [
  ["COP(=O)(OC)OC(Br)C(Cl)(Cl)Br (stereo unspecified)", "active"],
  ["CC1=NNC(=O)N(/N=C/c2cccnc2)C1", "inactive"],
  ["CC(C)N(C(=O)SCC(Cl)=C(Cl)Cl)C(C)C", "inactive"],
  ["C=C(C)[C@H]1Cc2c(ccc3c2O[C@@H]2COc4cc(OC)c(OC)cc4[C@@H]2C3=O)O1", "inactive"]
]}

Call for entry CC(C1CC1)C(O)(Cn1cncn1)c1ccc(Cl)cc1 (stereo unspecified) :
inactive

Call for entry COc1cccc(C(=O)NN(C(=O)c2cc(C)cc(C)c2)C(C)(C)C)c1C :
inactive

====

test.method.notes: ATG_TGFb_CIS: Attagene CIS-FACTORIAL HepG2 Assay for human Transforming Growth Factor (TGF) (AID 2282967)
protocol.conditions: HepG2 Attagene CIS TGFb reporter, mRNA transcription; actives raise or lower the signal
The source made the active and inactive calls. How the source made its calls: active means hit-call score of the fitted dose curve at least 0.9, where 1 is the maximum; inactive means score below 0.9.
parameter.measured: outcome

{"columns": ["compound", "outcome"],
 "data": [
  ["CCCCOC(=O)c1ccccc1C(=O)O", "inactive"],
  ["CCOP(=O)(NC(C)C)Oc1ccc(SC)c(C)c1 (stereo not given)", "inactive"],
  ["COP(=O)(OC)OC(Br)C(Cl)(Cl)Br (stereo not given)", "inactive"],
  ["CCOP(=S)(OCC)SCCSCC", "inactive"]
]}

We now examine a further compound.
The compound listed as COP(=O)(OC)SCn1c(=O)oc2cc(Cl)cnc21 shows outcome equal to inactive

====

test.method.notes: APR_HepG2_CellLoss_72hr: Apredica 72-hour HepG2 Assay for Cell Loss (AID 2282915)
protocol.conditions: high-content imaging
Activity calls are given as the source filed them. Rule for the calls: active = hit-call score of the fitted dose curve at least 0.9, where 1 is the maximum; inactive = score below 0.9.
parameter.measured: AC50

// known answers, use as guide
{"columns": ["compound", "AC50"],
 "data": [
  ["C#CC(C)(C)NC(=O)c1cc(Cl)cc(Cl)c1", "69.1 µM (active)"],
  ["CCCCOC(=O)c1ccccc1C(=O)O", "inactive"],
  ["CC1(C(=O)Nc2ccc(O)c(Cl)c2Cl)CCCCC1", "71.2 µM (active)"],
  ["CSc1nnc(C(C)(C)C)c(=O)n1N", "inactive"],
  ["COc1cc(OC)nc(Sc2cccc(Cl)c2C(=O)O)n1", "inactive"]
]}

The compound listed as CC(C)=CC1C(C(=O)OCN2C(=O)C3=C(CCCC3)C2=O)C1(C)C (stereo unspecified) shows AC50 equal to 100 µM (active)

The compound listed as C[Si](Cn1cncn1)(c1ccc(F)cc1)c1ccc(F)cc1 shows AC50 equal to 57.8 µM (active)

The compound listed as COP(=O)(OC)C(O)C(Cl)(Cl)Cl (stereo unspecified) shows AC50 equal to 100 µM (active)

The compound listed as CCOP(=S)(OCC)Oc1ccc([N+](=O)[O-])cc1 shows AC50 equal to inactive

The compound listed as CCC(CC)Nc1c([N+](=O)[O-])cc(C)c(C)c1[N+](=O)[O-] shows AC50 equal to 108 µM (active)

The compound listed as CSc1nc(NC(C)C)nc(NC(C)C)n1 shows AC50 equal to inactive

====

test.method.notes: ATG_M_32_CIS: Attagene CIS-FACTORIAL HepG2 Assay for M32 Transcription Factor (Internal Marker) (AID 2282949);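 further: background control marker of the multiplexed CIS panel rather than a real target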
protocol.conditions: HepG2 Attagene cis-factorial M32 reporter, mRNA; actives raise or lower the signal
The source made the active and inactive calls. The calls were made as follows: active = hit-call score of the fitted dose curve at least 0.9, where 1 is the maximum; inactive = score below 0.9.
Thanks in advance; please answer with one of these: Yes for active, No for inactive

As a guide, the following entries are already answered.
{"columns": ["compound", "assigned.label"],
 "data": [
  ["CCc1cccc(CC)c1N(COC)C(=O)CCl", "No"],
  ["FC(F)C(F)(F)OCC(Cn1cncn1)c1ccc(Cl)cc1Cl (stereo unspecified)", "No"],
  ["C#CC(C)(C)NC(=O)c1cc(Cl)cc(Cl)c1", "No"]
]}

Call for entry C#CCC1=C(C)C(OC(=O)C2C(C=C(C)C)C2(C)C)CC1=O (stereo unspecified) :
Yes

Call for entry CCOP(=S)(OCC)SCCSCC :
No

Call for entry CCc1cnc(C2=NC(C)(C(C)C)C(=O)N2)c(C(=O)O)c1 (stereo unspecified) :
No

====

test.method.notes: Tanguay_ZF_120hpf_EYE_legacy: (Legacy) Oregon State University Tanguay Lab 120 Hour Post-fertilization zebrafish Assay for Eye Malformation (AID 2283636);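 further: binary presence or absence of eye malformation scored by brightfield in 120 hpf larvae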
Inconclusive results are not listed. Calls of active or inactive are those of the source. The calls were made as follows: active = hit-call score of the fitted dose curve at least 0.9, where 1 is the maximum; inconclusive = response in the unintended direction; inactive = score below 0.9.
Thanks in advance; please answer with one of these: active, inactive

As a guide, the following entries are already answered.
{"columns": ["chemical.string", "assigned.label"],
 "data": [
  ["Cc1ccn2nc(S(=O)(=O)Nc3c(F)cccc3F)nc2n1", "inactive"],
  ["CC[C@H](C)[C@H]1O[C@]2(C=C[C@@H]1C)C[C@@H]1C[C@@H](C/C=C(\\C)[C@@H](O[C@H]3C[C@H](OC)[C@@H](O[C@H]4C[C@H](OC)[C@@H](NC)[C@H](C)O4)[C@H](C)O3)[C@@H](C)/C=C/C=C3\\CO[C@@H]4[C@H](O)C(C)=C[C@@H](C(=O)O1)[C@]34O)O2", "inactive"],
  ["CSc1nnc(C(C)(C)C)c(=O)n1N", "inactive"],
  ["CC(=NC#N)N(C)Cc1ccc(Cl)nc1", "inactive"],
  ["CCOP(=S)(OCC)SCCSCC", "inactive"],
  ["CCCCN(CC)c1c([N+](=O)[O-])cc(C(F)(F)F)cc1[N+](=O)[O-]", "inactive"],
  ["CN(C)NC(=O)CCC(=O)O", "inactive"],
  ["CN1COCN(Cc2cnc(Cl)s2)C1=N[N+](=O)[O-]", "inactive"]
]}

Call for entry CCCOc1nn(C(=O)NS(=O)(=O)c2ccccc2C(=O)OC)c(=O)n1C :
inactive

Call for entry Nc1c(Cl)cc([N+](=O)[O-])cc1Cl :
active

Call for entry CCCCSP(=O)(SCCCC)SCCCC :
inactive

Call for entry CC1(C(=O)Nc2ccc(O)c(Cl)c2Cl)CCCCC1 :
inactive

Call for entry CC(C)N(C(=O)SCC(Cl)=C(Cl)Cl)C(C)C :
inactive

====

Read-out: Signal transducer and activator of transcription 3 (Homo sapiens)
test.method.notes: LTEA_HepaRG_STAT3: Life Technologies and Expression Analysis (LTEA) Assay for Signal transducer and activator of transcription (STAT3) using HepaRG (AID 2283529)
protocol.conditions: mRNA level, 48 h; actives raise or lower the signal
Calls of active or inactive are those of the source. Rule for the calls: active = hit-call score of the fitted dose curve at least 0.9, where 1 is the maximum; inactive = score below 0.9.
Thanks in advance; please answer with one of these: active, inactive

{"columns": ["molecule", "assigned.label"],
 "data": [
  ["COP(=O)(OC)OC(Br)C(Cl)(Cl)Br (stereo not given)", "inactive"]
]}

Call for entry C[N+]1(C)CCCCC1 :
inactive

Call for entry CCC(CC)Nc1c([N+](=O)[O-])cc(C)c(C)c1[N+](=O)[O-] :
inactive

Call for entry Nc1c(Cl)cc([N+](=O)[O-])cc1Cl :
active

Call for entry CC(Oc1cccc(Cl)c1)C(=O)O (stereo not given) :
inactive

====

test.method.notes: BSK_KF3CT_SRB: Viability Assessment in the BioMAP Diversity Plus: KF3CT Assay (AID 2283069);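 further: total protein by sulforhodamine B staining as a cytotoxicity measure; read 24 h after compound addition; fitted for both signal gain and loss against DMSO baseline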
protocol.conditions: primary human keratinocytes with fibroblasts
Calls of active or inactive are those of the source. The calls were made as follows: active = hit-call score of the fitted dose curve at least 0.9, where 1 is the maximum; inactive = score below 0.9.
Thanks in advance; please answer with one of these: active, inactive

As a guide, the following entries are already answered.
{"columns": ["molecule", "assigned.label"],
 "data": [
  ["C[Si](Cn1cncn1)(c1ccc(F)cc1)c1ccc(F)cc1", "inactive"],
  ["CCOP(=O)(SC(C)CC)N1CCSC1=O (stereo unspecified)", "inactive"],
  ["CCOP(=S)(Oc1cnc(C(C)(C)C)nc1)OC(C)C (stereo unspecified)", "active"]
]}

Call for entry CCOC(=O)COc1cc(-c2nn(C)c(OC(F)F)c2Cl)c(F)cc1Cl :
inactive

Call for entry CC1(C(=O)Nc2ccc(O)c(Cl)c2Cl)CCCCC1 :
inactive

Call for entry CC(=NC#N)N(C)Cc1ccc(Cl)nc1 :
inactive

====

Read-out: Cytochrome P450 4A22 (Homo sapiens)
test.method.notes: LTEA_HepaRG_CYP4A22: Life Technologies and Expression Analysis (LTEA) Assay for Cytochrome P450 4A22 (CYP4A22) using HepaRG (AID 2283495)
protocol.conditions: mRNA level, 48 h; actives raise or lower the signal
Activity calls are given as the source filed them. The calls were made as follows: active = hit-call score of the fitted dose curve at least 0.9, where 1 is the maximum; inactive = score below 0.9.
Thanks in advance; please answer with one of these: yes (active), no (inactive)

{"columns": ["compound", "assigned.label"],
 "data": [
  ["CSc1nnc(C(C)(C)C)c(=O)n1N", "no"]
]}

Call for entry CNC(=O)ON=C(C)SC :
no

src = PubChem BioAssay (EPA / NIEHS)
